fraction unbound: recorded values
Assay: Human plasma protein binding
Type: in vitro ADME
Conditions: human, read-out: % Bound in human plasma (converted)

{"compound": "CCCc1nn(C)c2c(=O)[nH]c(-c3cc(S(=O)(=O)N4CCC([C@@H](O)CO[N+](=O)[O-])CC4)ccc3OCC)nc12 [Compound 1c]", "fraction unbound": 0.0118}
{"compound": "CCCc1nc(C)c2c(=O)[nH]c(-c3cc(S(=O)(=O)N4CCC(CC(CO)CO)CC4)ccc3OCC)nn12 [Compound 43]", "fraction unbound": 0.022}
{"compound": "CCCc1nn(C)c2c(=O)[nH]c(-c3cc(S(=O)(=O)N4CCN(C)CC4)ccc3OCC)nc12 [Sildenafil, reference compound]", "fraction unbound": 0.0421}
